experiment-description: qHTS Assay for Lipid Storage Modulators in Drosophila S3 Cells;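 further: cells counted by Cell Tracker Red CMTPX staining in the red channel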
condition-notes: BODIPY lipid droplet fluorescence, 18-24 h, cells fed with added oleic acid; measured here: cell count max response
Screen size: about 320,000 compounds; about 2,100 (0.66%) were called active. Inconclusive results (about 53%) are left out. The full list was thinned out, with actives kept by preference.
endpoint-label: cell number change (%)
Numbers only, in %.

# annotated cases, reported cell number change shown
- molecule: "CN1CCN(S(=O)(=O)c2cccc(C(=O)Nc3cc(C(F)(F)F)ccc3N3CCCC3)c2)CC1"
  cell number change / %: 1.88
- molecule: "CCC(CC)c1nnc(NC(=O)CN2C(=O)NC3(CCCC3)C2=O)s1"
  cell number change / %: 9
- molecule: "COc1ccc(-c2cc(C(=O)N3CCN(c4ccccc4F)CC3)c3ccccc3n2)c(OC)c1"
  cell number change / %: -25.7
- molecule: "O=C(CSc1ncccn1)Nn1cnnc1"
  cell number change / %: -0.567
- molecule: "COc1ccc(-n2c(=S)[nH]c3cc(C(=O)NCc4ccccc4)ccc3c2=O)c(OC)c1"
  cell number change / %: 8.56
- molecule: "Cc1oc(/N=C/c2cccc([N+](=O)[O-])c2)c(C#N)c1C"
  cell number change / %: -19.3
- molecule: "Cc1oc(/N=C/c2ccccc2)c(C#N)c1C"
  cell number change / %: 0.993
- molecule: "Cc1cc(OCC(=O)NCc2nc(-c3ccccc3)no2)c(C)cc1Br"
  cell number change / %: 8.52
- molecule: "O=C(COC(=O)c1ccc(S(=O)(=O)NCc2ccco2)cc1)NC1CCCCC1"
  cell number change / %: 0.997
- molecule: "Cc1oc(/N=C/c2ccccc2O)c(C#N)c1C"
  cell number change / %: -11.3

Batch request: cell number change for each of the following molecules.
1. CCN1C(=O)[C@H]2[C@@H](c3ccc(-c4ccc(OC)cc4)cc3)N[C@@](CC(C)C)(C(=O)OC)[C@H]2C1=O
2. CCN1C(=O)[C@H]2[C@@H](c3ccc(-c4ccccc4)cc3)N[C@@](CC(C)C)(C(=O)OC)[C@H]2C1=O
3. COc1ccc(-n2c(=S)[nH]c3cc(C(=O)Nc4ccc(OC)c(OC)c4)ccc3c2=O)cc1

[out]
[12.8, 7.59, 1.06]

Batch request: cell number change for each of the following molecules.
1. COc1ccccc1C(=O)NCCn1cc(SCC(=O)NCC2CCCO2)c2ccccc21 (stereo unspecified)
2. COc1ccc(CNC(=S)Nc2ccccc2)cc1Cl
3. CCN(CC)CCN(Cc1cc2cc3c(cc2[nH]c1=O)OCCO3)C(=O)NC1CCCCC1
4. O=C(Nc1ccc(Cl)cc1)Nn1cnnc1

[out]
1. -16.8
2. 0.106
3. 4.42
4. 8.74

Batch request: cell number change for each of the following molecules.
1. CC1(C)Cc2c(cnn2-c2cccc(F)c2)C(NC(=O)CN2CCCC2=O)C1 (stereo unspecified)
2. Cc1cc(C)n(-c2ccc(C(=O)NCc3ccc4c(c3)OCO4)cc2)n1
3. CCCCCC(=O)Nc1cc(N(C)C)nc2ccccc12

[out]
[-1.15, -26, 6.14]

[in] Param item = "Cc1ccc(CNC(=O)COC(=O)c2ccc(S(=O)(=O)NCc3ccco3)cc2)cc1" ; retrieve measured cell number change.
[out] -0.995
